Target: UniProt O14965
Sequence (O14965 whole entry): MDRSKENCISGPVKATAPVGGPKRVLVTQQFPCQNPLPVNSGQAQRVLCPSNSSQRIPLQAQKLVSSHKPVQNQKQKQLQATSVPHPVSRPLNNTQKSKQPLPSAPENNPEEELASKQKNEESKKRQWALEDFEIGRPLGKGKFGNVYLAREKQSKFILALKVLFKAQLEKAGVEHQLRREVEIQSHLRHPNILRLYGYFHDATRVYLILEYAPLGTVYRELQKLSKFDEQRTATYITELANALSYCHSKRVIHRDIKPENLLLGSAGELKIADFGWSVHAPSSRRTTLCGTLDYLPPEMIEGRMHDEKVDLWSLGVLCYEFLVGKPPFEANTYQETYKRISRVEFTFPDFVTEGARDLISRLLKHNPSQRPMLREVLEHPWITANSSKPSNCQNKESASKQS
Ok so here's the combined literature set: Kd for UniProt O14965.
OUTCOME MEASURE: Kd (nM)

The cases that follow already have their Kd on record.
COMPOUND: Cc1cc(Nc2nc(Sc3ccc(NC(=O)CN4CC[C@@H](C(=O)N5CCCC5)C4)cc3)nn3cccc23)n[nH]1
TARGET ENTITY: UniProt O14965
REPORTED: 6.3
//
COMPOUND: Cc1cc(Nc2nc(Sc3ccc(NC(=O)CN4C[C@H](SC(C)(C)C)C[C@H]4CO)cc3)nn3cccc23)n[nH]1
TARGET ENTITY: UniProt O14965
REPORTED: 111
//
COMPOUND: Cc1cc(Nc2nc(Sc3ccc(NC(=O)CN4C[C@H](F)C[C@H]4CO)cc3)nn3cccc23)n[nH]1
TARGET ENTITY: UniProt O14965
REPORTED: 15
//
COMPOUND: Cc1cc(Nc2nc(Sc3ccc(NC(=O)CN4CC[C@H](O)C4)cc3)nn3cccc23)n[nH]1
TARGET ENTITY: UniProt O14965
REPORTED: 39
//
COMPOUND: Cc1cc(Nc2nc(Sc3ccc(NC(=O)CN4CC[C@@H](C(=O)NCC(F)(F)F)C4)cc3)nn3cccc23)n[nH]1
TARGET ENTITY: UniProt O14965
REPORTED: 2.5
//
COMPOUND: Cc1cc(Nc2nc(Sc3ccc(NC(=O)CN4CCC[C@H]4CO)cc3)nn3cccc23)n[nH]1
TARGET ENTITY: UniProt O14965
REPORTED: 14

[I] Cc1cc(Nc2nc(Sc3ccc(NC(=O)CN4CC[C@@H](O)C4)cc3)nn3cccc23)n[nH]1
[II] Cc1cc(Nc2nc(Sc3ccc(NC(=O)C4CC4)cc3)nn3cc(NC(=O)CN4CCOCC4)cc23)n[nH]1
[III] Cc1cc(Nc2nc(Sc3ccc(NC(=O)CN4CCOCC4)cc3)nn3cccc23)n[nH]1
[IV] Cc1cn2c(-c3cn[nH]c3)cnc2c(Nc2cc(Cc3ccccn3)ns2)n1
[V] Cc1cc(Nc2nc(Sc3ccc(NC(=O)CN4CC[C@@H](SC(C)(C)C)C4)cc3)nn3cccc23)n[nH]1
Lookup: Kindly order the items shown according to Kd, from the highest value down. Provide the labels, sequenced as the question asks.
Found: III, V, I, II, IV

----------
Biological target: Aurora kinase A (Homo sapiens)
Sequence (O14965 whole entry): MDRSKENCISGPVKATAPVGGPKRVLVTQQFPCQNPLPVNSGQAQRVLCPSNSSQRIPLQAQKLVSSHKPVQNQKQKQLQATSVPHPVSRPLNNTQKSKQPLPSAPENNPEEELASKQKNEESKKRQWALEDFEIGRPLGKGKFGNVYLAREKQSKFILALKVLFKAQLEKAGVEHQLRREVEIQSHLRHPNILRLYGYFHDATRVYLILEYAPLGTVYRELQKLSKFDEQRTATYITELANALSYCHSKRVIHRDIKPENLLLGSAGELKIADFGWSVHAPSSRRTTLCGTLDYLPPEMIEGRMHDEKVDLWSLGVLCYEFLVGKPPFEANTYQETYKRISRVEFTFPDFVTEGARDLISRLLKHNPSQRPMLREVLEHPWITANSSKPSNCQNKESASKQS
pKd: −log10 of the molar value.
# merged literature set: pKd with Aurora kinase A (Homo sapiens)
OUTCOME MEASURE: pKd

Example results:
COMPOUND: Cc1cc(Nc2nc(Sc3ccc(NC(=O)CN4CC(=NO)[C@@H](OC(C)(C)C)C4)cc3)nn3cccc23)n[nH]1 (mixture of isomers)
pKd: 8.05
//
COMPOUND: Cc1cc(Nc2nc(Sc3ccc(NC(=O)C4CC4)cc3)nn3cc(NC(=O)CN4CCC[C@@H]4CO)cc23)n[nH]1
pKd: 8.00
//
COMPOUND: Cc1cc(Nc2nc(Sc3ccc(NC(=O)CN4CC[C@@H](OCCN5CCN(C)CC5)C4)cc3)nn3cccc23)n[nH]1
pKd: 7.90

[A] Cc1cc(Nc2nc(Sc3ccc(NC(=O)CN4CC[C@@H]([S+]([O-])C(C)(C)C)C4)cc3)nn3cccc23)n[nH]1 (stereo partly drawn)
[B] Cc1cc(Nc2nc(Sc3ccc(NC(=O)CN4C[C@H](O)[C@@H](F)C4)cc3)nn3cccc23)n[nH]1
[C] Cc1cc(Nc2nc(Sc3ccc(NC(=O)C4CC4)cc3)nn3cccc23)n[nH]1
[D] Cn1cc(C2=C(c3cccc(NCC(O)CO)c3)C(=O)NC2=O)c2cc(F)ccc21 (racemic)
Lookup: Exam item: list the entries in increasing order of pKd. Give your ranking as a list of the labels in the requested order.
Found: D, C, B, A
